MEASUREMENT PARAMETERS: Caco-2, Papp (AB), Mean
Where a SMILES comes first, the peptide text is derived from it. [ ]: non-standard residue; d: D form. Arg(ω,ω'-(C6H13OCO)2) = CCCCCCOC(=O)N=C(NCCC[C@H](N)C(=O)O)NC(=O)OCCCCCC
OBSERVATION TYPE: Papp A→B (×10⁻⁶ cm/s)

COMPOUND: CC(C)C[C@@H]1NC(=O)CNC(=O)[C@@H]2CCCN2C(=O)[C@@H]2CCCN2C(=O)[C@H](CC(C)C)NC(=O)[C@H](CC(=O)O)NC(=O)CNC(=O)[C@H](CCCNC(=N)N)NC1=O [FRX068] (cyclo(RGDLPPGL))
OBSERVATION TYPE: Papp A→B
LIMIT OPERATOR: =
MEASUREMENT: 0.3

COMPOUND: C[C@@H]1NC(=O)[C@H](C)NC(=O)[C@@H](C)N(C)C(=O)[C@H](C)N(C)C(=O)[C@H](C)NC(=O)[C@H](C)NC1=O [1,6CHA, *aAAAA*A]
OBSERVATION TYPE: Papp A→B
LIMIT OPERATOR: =
MEASUREMENT: 0.1

COMPOUND: CCCCCCOC(=O)N=C(NCCC[C@@H]1NC(=O)[C@H](Cc2ccccc2)NC(=O)[C@@H]2CCCN2C(=O)[C@@H]2CCCN2C(=O)[C@H](CC(C)C)NC(=O)[C@H](C)NC(=O)[C@H](CC(C)C)NC(=O)[C@H](CC(=O)OC)NC(=O)CNC1=O)NC(=O)OCCCCCC [AR372] (cyclo(ALPPF[Arg(ω,ω'-(C6H13OCO)2)]GD(OMe)L))
OBSERVATION TYPE: Papp A→B
LIMIT OPERATOR: <
MEASUREMENT: 0.01

COMPOUND: CC(C)C[C@@H]1NC(=O)[C@H](CC(=O)O)NC(=O)CNC(=O)[C@H](CCCNC(=N)N)NC(=O)[C@H](Cc2ccccc2)NC(=O)[C@@H]2CCCN2C(=O)[C@@H]2CCCN2C(=O)[C@H](CC(C)C)NC(=O)[C@H](C)NC1=O [OM1186] (cyclo(RGDLALPPF))
OBSERVATION TYPE: Papp A→B
LIMIT OPERATOR: <
MEASUREMENT: 0.3

* * *

Below is a list of entries, each paired with its recorded Papp A→B value.
MEASUREMENT PARAMETERS: Caco-2, Papp (AB), replicate 3
Where a SMILES comes first, the peptide text is derived from it. [ ]: non-standard residue; d: D form. Arg(ω,ω'-(C6H13OCO)2) = CCCCCCOC(=O)N=C(NCCC[C@H](N)C(=O)O)NC(=O)OCCCCCC

COMPOUND: CCCCCCOC(=O)N=C(NCCC[C@@H]1NC(=O)[C@H](Cc2ccccc2)NC(=O)[C@@H]2CCCN2C(=O)[C@@H]2CCCN2C(=O)[C@H](CC(C)C)NC(=O)[C@H](C)NC(=O)[C@H](CC(C)C)NC(=O)[C@H](CC(=O)OC)NC(=O)CNC1=O)NC(=O)OCCCCCC [AR372] (cyclo(ALPPF[Arg(ω,ω'-(C6H13OCO)2)]GD(OMe)L))
LIMIT OPERATOR: <
Papp A→B (×10⁻⁶ cm/s): 0.01
--
COMPOUND: CC(C)C[C@@H]1NC(=O)CNC(=O)[C@@H]2CCCN2C(=O)[C@@H]2CCCN2C(=O)[C@H](CC(C)C)NC(=O)[C@H](CC(=O)O)NC(=O)CNC(=O)[C@H](CCCNC(=N)N)NC1=O [FRX068] (cyclo(RGDLPPGL))
LIMIT OPERATOR: =
Papp A→B (×10⁻⁶ cm/s): 0.2
--
COMPOUND: C[C@@H]1NC(=O)[C@H](C)NC(=O)[C@@H](C)N(C)C(=O)[C@H](C)N(C)C(=O)[C@H](C)NC(=O)[C@H](C)NC1=O [1,6CHA, *aAAAA*A]
LIMIT OPERATOR: =
Papp A→B (×10⁻⁶ cm/s): 0.1

* * *

MEASUREMENT PARAMETERS: PAMPA, pH 7.4

COMPOUND: CNC(=C[N+](=O)[O-])NCCSCc1ccc(CN(C)C)o1 [Ranitidine, reference compound]
Permeability, replicate 1: <−7 Log10[10^−6 cm/s]
//
COMPOUND: CCCCCCOC(=O)N=C(N)NCCC[C@@H]1NC(=O)[C@@H](C(C)C)N(C)C(=O)[C@H](C)N(C)C(=O)[C@H](C)NC(=O)[C@H](CC(=O)OC)NC(=O)CNC1=O [#29P-Hoc]
Permeability, replicate 1: <−7 Log10[10^−6 cm/s]
//
COMPOUND: C=C[C@H]1C[N@@]2CC[C@H]1C[C@@H]2[C@@H](O)c1ccnc2ccc(OC)cc12 [Quinidine, reference compound]
Permeability, replicate 1: −4.6 Log10[10^−6 cm/s]
